test: ATG_NRF2_ARE_CIS: Attagene CIS-FACTORIAL HepG2 Assay for human Nuclear Factor Erythroid 2 Related Factor 2 (NFR2) response to Antioxidant Response Elements (ARE) (AID 2282992); conditions: HepG2 Attagene ARE/NRF2 reporter, transcription factor activity; actives raise or lower the signal
Calls of active or inactive are those of the source. Rule for the calls: active = hit-call score of the fitted dose curve at least 0.9, where 1 is the maximum; inactive = score below 0.9.
Your response should consist of one outcome taken from active, inactive

compound | class.name
CCCN(CCC)C(=O)SCC | inactive
CCNc1nc(N)nc(Cl)n1 | inactive
Oc1ccc(C(c2ccc(O)cc2)C(Cl)(Cl)Cl)cc1 | inactive

Query: GET /call?item= CCOC(=O)c1ccc(O)cc1 returns the recorded outcome of this test.
Response: inactive

Query: # outcome recorded in this test, key = COC(=O)CSc1cc(N=c2sc(=O)n3n2CCCC3)c(F)cc1Cl
Response: active

----------
assay: CCTE_Padilla_ZF_144hpf_TERATOSCORE: (Legacy) CCTE's 144 Hour Post-fertilization zebrafish Assay Teratoscore, Padilla Lab (AID 2283679)
Calls of active or inactive are those of the source. The calls were made as follows: active = hit-call score of the fitted dose curve at least 0.9, where 1 is the maximum; inactive = score below 0.9.
Entry note: the call must match one of active, inactive

# example entries with known answers
molecule | class.name
CCCCOC(=O)[C@@H](C)Oc1ccc(Oc2ccc(C(F)(F)F)cn2)cc1 | active
COc1nc(C)nc(NC(=O)NS(=O)(=O)c2ccccc2OCCCl)n1 | inactive
COC(=O)c1ccccc1S(=O)(=O)NC(=O)Nc1nc(OC(F)F)cc(OC(F)F)n1 | active
COC(=O)c1ccc(I)cc1S(=O)(=O)NC(=O)Nc1nc(C)nc(OC)n1 | inactive
O=C(c1ccccc1)C1CCCCC1 | inactive

Query: What did the test return for CCC(O)=C1C(=O)CC(C(=O)O)CC1=O (stereo not given) ?
Response: inactive

Query: # fetch the recorded call for CCOC(=O)C(C)Oc1ccc(Oc2nc3ccc(Cl)cc3o2)cc1 (stereo not given) here
Response: active

Query: Record request — test call for C#C[C@]1(O)CC[C@H]2[C@@H]3CCC4=CC(=O)CC[C@@H]4[C@H]3CC[C@@]21CC
Response: inactive

Query: Returns: the outcome recorded for COC(=O)c1c(Cl)nn(C)c1S(=O)(=O)NC(=O)Nc1nc(OC)cc(OC)n1 in this assay.
Response: active

Query: # lookup: test call for CN(C)C(=O)Nc1ccc(Cl)c(Cl)c1
Response: inactive

----------
read-out: Cellular tumor antigen p53 (Homo sapiens); assay: LTEA_HepaRG_TP53: Life Technologies and Expression Analysis (LTEA) Assay for Tumor Protein P53 (TP53) using HepaRG (AID 2283537); details: mRNA level, 48 h; actives raise or lower the signal
Calls of active or inactive are those of the source. Rule for the calls: active = hit-call score of the fitted dose curve at least 0.9, where 1 is the maximum; inactive = score below 0.9.
test.readout: outcome

Worked set:
compound | test.readout | val
O=C(O)c1ccccc1 | outcome | inactive
CCSC(=O)N(CC(C)C)CC(C)C | outcome | inactive
CC1(C)C(C=C(Cl)Cl)C1C(=O)OCc1cccc(Oc2ccccc2)c1 (stereo not drawn) | outcome | inactive
OB(O)O | outcome | inactive
CCOC(=O)C(C)Oc1ccc(Oc2nc3ccc(Cl)cc3o2)cc1 (stereo not drawn) | outcome | inactive
c1ccc(Nc2ccccc2)cc1 | outcome | inactive
N[C@@H](Cc1cc(I)c(Oc2ccc(O)c(I)c2)c(I)c1)C(=O)O | outcome | inactive
CCCCC(CC)COC(=O)c1ccccc1C(=O)O (stereo not drawn) | outcome | inactive
C#CCOC(=O)[C@@H](C)Oc1ccc(Oc2ncc(Cl)cc2F)cc1 | outcome | inactive
COC(=O)CSc1cc(N=c2sc(=O)n3n2CCCC3)c(F)cc1Cl | outcome | inactive

Query: # lookup: outcome of C[C@]12C[C@H](O)[C@H]3[C@@H](CCC4=CC(=O)CC[C@@]43C)[C@@H]1CC[C@@H]2C(=O)CO
Response: inactive

Query: Reported outcome, compound C#C[C@]1(O)CC[C@H]2[C@@H]3CCC4=CC(=O)CC[C@@H]4[C@H]3CC[C@@]21CC : ____
Response: inactive

Query: Quick check: outcome of CCC(C)OC(=O)N1CCCCC1CCO (stereo not drawn) ?
Response: inactive

----------
target: human Serotonin, 5-Hydroxytryptamine Receptor 7 (5HT7), HTR7 (gene 3363) (UniProt P34969); assay: NVS_GPCR_h5HT7: NovaScreen (NVS) G Protein-Coupled Receptor Assay for human Serotonin, 5-Hydroxytryptamine Receptor 7 (5HT7) (AID 2283255);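 note: hits reduce specific radioligand binding relative to DMSO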
Sequence (P34969 whole entry, looked up): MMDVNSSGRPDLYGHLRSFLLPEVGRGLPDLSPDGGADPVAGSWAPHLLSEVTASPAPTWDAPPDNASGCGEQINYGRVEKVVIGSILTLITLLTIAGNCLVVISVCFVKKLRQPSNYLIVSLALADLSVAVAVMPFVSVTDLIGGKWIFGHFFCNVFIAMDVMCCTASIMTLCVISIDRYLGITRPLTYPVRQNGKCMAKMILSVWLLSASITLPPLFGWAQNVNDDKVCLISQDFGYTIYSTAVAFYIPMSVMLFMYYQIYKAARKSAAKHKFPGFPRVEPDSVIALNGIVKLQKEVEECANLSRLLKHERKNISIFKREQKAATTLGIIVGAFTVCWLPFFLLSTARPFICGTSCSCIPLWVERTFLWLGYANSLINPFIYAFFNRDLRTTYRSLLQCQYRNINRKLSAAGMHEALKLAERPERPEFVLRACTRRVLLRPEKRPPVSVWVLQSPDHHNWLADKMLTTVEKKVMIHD
Results filed as inconclusive are left out. Activity calls are given as the source filed them. How the source made its calls: active means hit-call score of the fitted dose curve at least 0.9, where 1 is the maximum; inconclusive means response in the unintended direction; inactive means score below 0.9.
Answer with one of the outcomes 1.0 (active), 0.0 (inactive)

# example entries with known answers
compound | class.name
Cc1nn(C)c(Oc2ccccc2)c1C=NOCc1ccc(C(=O)OC(C)(C)C)cc1 | 1.0
CCCCCCC(C)OC(=O)COc1nc(F)c(Cl)c(N)c1Cl (stereo not given) | 0.0
CC1(C)C(C=C(Cl)Cl)C1C(=O)OCc1cccc(Oc2ccccc2)c1 (stereo not given) | 0.0
CC(C)(c1ccc(O)cc1)c1ccc(O)cc1 | 0.0

Next item in the queue.
Query: Kindly provide the recorded test outcome for the following compound: CCCCOC(=O)[C@@H](C)Oc1ccc(Oc2ccc(C(F)(F)F)cn2)cc1
Response: 0.0

----------
target: human Casein Kinase 1-delta (CK1D), CSNK1D (gene 1453); assay: NVS_ENZ_hCK1D: NovaScreen (NVS) Enzymatic Assay for human Casein Kinase 1-delta (CK1D) (AID 2283148)
Inconclusive results are not listed. Calls of active or inactive are those of the source. Rule for the calls: active = hit-call score of the fitted dose curve at least 0.9, where 1 is the maximum; inconclusive = response in the unintended direction; inactive = score below 0.9.
Result category, one only: 1 for active, 0 for inactive

Example cases with answers are listed next.
compound | class.name
CC(C)(c1ccc(O)cc1)c1ccc(O)cc1 | 1
CC(=O)[C@H]1CC[C@H]2[C@@H]3CCC4=CC(=O)CC[C@]4(C)[C@H]3CC[C@]12C | 0
O=C(c1ccc(O)cc1O)c1ccc(O)cc1O | 1
CCCCC(CC)COC(=O)c1ccccc1C(=O)O (stereo not given) | 0

Query: Please let me know the test result on file for CC(C)CCCCCCc1ccc(O)cc1 .
Response: 0

----------
target: Paired box protein Pax-6 (Homo sapiens) (UniProt P26367); assay: ATG_Pax6_CIS: Attagene CIS-FACTORIAL HepG2 Assay for human Paired Box 6 (PAX6) (AID 2282956); details: HepG2 CIS-FACTORIAL PAX6 reporter transcription, RNA readout; actives raise or lower the signal
Sequence (P26367 whole entry, looked up): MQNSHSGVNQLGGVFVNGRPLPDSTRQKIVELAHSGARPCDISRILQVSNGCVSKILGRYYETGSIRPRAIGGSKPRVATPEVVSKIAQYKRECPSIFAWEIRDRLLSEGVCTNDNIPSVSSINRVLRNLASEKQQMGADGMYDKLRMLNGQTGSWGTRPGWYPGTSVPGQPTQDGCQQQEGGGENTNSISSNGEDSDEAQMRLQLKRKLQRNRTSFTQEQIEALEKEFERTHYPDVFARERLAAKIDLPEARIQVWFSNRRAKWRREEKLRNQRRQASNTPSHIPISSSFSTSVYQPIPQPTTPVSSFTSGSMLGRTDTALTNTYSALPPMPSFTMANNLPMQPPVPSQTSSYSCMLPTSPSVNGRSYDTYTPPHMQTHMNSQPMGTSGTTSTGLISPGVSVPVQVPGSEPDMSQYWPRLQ
Calls of active or inactive are those of the source. The calls were made as follows: active = hit-call score of the fitted dose curve at least 0.9, where 1 is the maximum; inactive = score below 0.9.
Form entry, call: pick from active, inactive

molecule | class.name
O=C(Nc1ccc([N+](=O)[O-])cc1Cl)c1cc(Cl)ccc1O | inactive
CSC(=O)c1cccc2nnsc12 | inactive
O=C(c1ccccc1)C1CCCCC1 | inactive
C#CCOC(=O)[C@@H](C)Oc1ccc(Oc2ncc(Cl)cc2F)cc1 | inactive
COC(=O)c1ccc(CNS(C)(=O)=O)cc1S(=O)(=O)NC(=O)Nc1nc(OC)cc(OC)n1 | inactive

Query: Assay result, entry C=CCOC(Cn1ccnc1)c1ccc(Cl)cc1Cl (configuration not stated) — outcome?
Response: active

Query: Given CCCCCOC(=O)COc1cc(N2C(=O)C3=C(CCCC3)C2=O)c(F)cc1Cl , state the outcome it received in this test.
Response: inactive

Query: Identify the outcome logged in this assay for the molecule shown: CCOC(=O)C(C)Oc1ccc(Oc2cnc3cc(Cl)ccc3n2)cc1 (configuration not stated)
Response: inactive

----------
Read-out: Monokine induced gamma interferon (MIG), CXCL9 (gene 4283)
Assay: BSK_3C_MIG: BioMAP Diversity Plus: 3C Assay for Monokine induced gamma interferon (MIG) Biomarker Activity (AID 2283021)
Details: primary human endothelial cells (HUVEC); actives raise or lower the signal
Method: BSK_3C is a cell-based, multiplexed-readout assay that uses umbilical vein endothelium, a human vascular primary cell, with measurements taken at 24 hours after chemical dosing in a 96-well plate.BSK_3C_MIG is an assay component measured in the BSK_3C assay. It measures MIG antibody related to regulation of gene expression using ELISA technology.Data from the assay component BSK_3C_MIG was analyzed into 1 assay endpoint. […]
Activity calls are given as the source filed them. How the source made its calls: active means hit-call score of the fitted dose curve at least 0.9, where 1 is the maximum; inactive means score below 0.9.
Result category, one only: 1 for active, 0 for inactive

Examples with answers:
molecule | class.name
C[C@]12CC[C@@H]3c4ccc(O)cc4C[C@@H](CCCCCCCCCS(=O)CCCC(F)(F)C(F)(F)F)[C@H]3[C@@H]1CC[C@@H]2O (stereo partly specified) | 0
COCCO | 0
CC(C)(c1ccc(O)cc1)c1ccc(O)cc1 | 0
CC1(C)C(C=C(Cl)Cl)C1C(=O)OCc1cccc(Oc2ccccc2)c1 (stereo unspecified) | 0
CCOC(=O)COc1cc(-n2ncc(C(F)(F)F)c(C)c2=O)c(F)cc1Cl | 0

Query: Please indicate how the test categorized Oc1ccc(C(c2ccc(O)cc2)C(Cl)(Cl)Cl)cc1 .
Response: 1

Query: Given COc1c(Cl)ccc(Cl)c1C(=O)O , state the outcome it received in this test.
Response: 0

Query: Just curious, what result did CC(=O)[C@H]1CC[C@H]2[C@@H]3CCC4=CC(=O)CC[C@]4(C)[C@H]3CC[C@]12C get here?
Response: 0

Query: Hi, sorry to bother you, what did the test record for S=C(S)NCCNC(=S)S.[Mn+2].[S-]C([S-])=NCCN=C([S-])[S-].[Zn+2] ?
Response: 0

Query: Entry COC(=O)c1ccccc1S(=O)(=O)NC(=O)Nc1nc(OC(F)F)cc(OC(F)F)n1 : call = ?
Response: 0

Query: Just curious, what result did CCCN(CCC)C(=O)SCC get here?
Response: 0
